- TARGET_UNDER_TEST: C-C chemokine receptor type 4 (Homo sapiens, UniProt P51679)
- Sequence (P51679 whole entry): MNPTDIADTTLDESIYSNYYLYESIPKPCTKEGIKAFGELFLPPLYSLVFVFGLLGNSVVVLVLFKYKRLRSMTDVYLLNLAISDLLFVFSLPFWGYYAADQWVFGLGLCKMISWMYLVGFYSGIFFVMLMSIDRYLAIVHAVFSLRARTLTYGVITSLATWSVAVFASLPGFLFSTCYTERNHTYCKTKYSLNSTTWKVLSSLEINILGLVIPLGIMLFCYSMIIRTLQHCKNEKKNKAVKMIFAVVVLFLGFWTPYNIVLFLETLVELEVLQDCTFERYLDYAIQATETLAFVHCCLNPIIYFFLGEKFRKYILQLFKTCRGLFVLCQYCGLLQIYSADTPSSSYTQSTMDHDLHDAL
- TEST_METHOD_NOTES: Displacement of [125I]MDC from human CCR4 expressed in HEK293 cells
- Assay type: cell-based
Consider the following molecules; for each one, report its IC50.
Lab book: enter the figure in nM, no units written.

Can you look up the measured IC50 of CCN(CC)CCCC(C)Nc1ncc2c(ncn2Cc2ccc(Cl)cc2Cl)n1 (stereo not drawn) for me?
830

Can you check CCN(CC)C(C)CCCNc1nccc(NCc2ccc(Cl)cc2Cl)n1.N (stereo not drawn) next?
280

Can you check CCN(CC)CCCC(C)Nc1nc(NCc2ccc(Cl)cc2Cl)nc2ccccc12 (stereo not drawn) next?
1910

Attribution: ChEMBL document CHEMBL1146290
